Kindly state IC50 for each of the entries shown.
ASSAY SYSTEM: porcine pancreatic PLA2 (Sus scrofa)
Construct: purchased Sigma
Sequence (P00592 23-146): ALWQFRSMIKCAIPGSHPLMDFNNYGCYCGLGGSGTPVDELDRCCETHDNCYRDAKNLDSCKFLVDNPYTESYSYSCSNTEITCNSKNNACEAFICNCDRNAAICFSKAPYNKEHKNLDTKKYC
EXPERIMENT NOTES: PLA2 assay: in vitro porcine pancreatic phospholipase A2, preincubation of drug+enzyme, substrate 2 nM
Format: biochemical
CONDITION INFO: preincubation; subs. con. 2; read-out: IC50 (converted)
Entry rule: numbers only, all in µM.

INPUT: Could you tell me which IC50 is on file for CCCCCCCCCCCCCCCCOCC(COP(=O)([O-])OCC[N+](C)(C)C)CS(=O)(=O)CCCCCCCCCCCCCCCC (stereo not shown) ?
OUTPUT: 2.99

INPUT: Could you tell me which IC50 is on file for CCCCCCCCCCCCCCCCOCC(COP(=O)([O-])OCC[N+](C)(C)C)CC1CO1 (stereo not shown) ?
OUTPUT: 4.6

INPUT: Could you tell me which IC50 is on file for CCCCCCCCCCCCCCCCSCCCOP(=O)([O-])OCC[N+](C)(C)C ?
OUTPUT: 12.9

INPUT: Could you tell me which IC50 is on file for CCCCCCCCCCCCCCCC[C@]1(COP(=O)([O-])OCC[N+](C)(C)C)CC(=O)N1 ?
OUTPUT: 2.85

INPUT: Could you tell me which IC50 is on file for CCCCCCCCCCCCCCCCOCC(CC=NO)COP(=O)([O-])OCC[N+](C)(C)C (stereo not shown) ?
OUTPUT: 10.1

INPUT: Could you tell me which IC50 is on file for CCCCCCCCCCCCCCCCOC[C@H](COP(=O)([O-])OCC[N+](C)(C)C)OP(=O)(OC)OCCCCCCCCCCCCCCCC (single isomer, unassigned) ?
OUTPUT: 17.1

INPUT: Could you tell me which IC50 is on file for CCCCCCCCCCCCCCCCS(=O)(=O)CCCOP(=O)([O-])OCC[N+](C)(C)C ?
OUTPUT: 9.54

INPUT: Could you tell me which IC50 is on file for CCCCCCCCCCCCCCCCOCC(COP(=O)([O-])OCC[N+](C)(C)C)CP(=O)(OCC)OCC (stereo not shown) ?
OUTPUT: 8.12

INPUT: Could you tell me which IC50 is on file for CCCCCCCCCCCCCCCCOCC(COP(=O)([O-])OCC[N+](C)(C)C)CC(=O)CCCCCCCCCCCCCCCC (stereo not shown) ?
OUTPUT: 7.92

INPUT: Could you tell me which IC50 is on file for CCCCCCCCCCCCCCCCOC[C@@H](COP(=O)([O-])OCC[N+](C)(C)C)OP(=O)(OC)OCCCCCCCCCCCCCCCC (single isomer, unassigned) ?
OUTPUT: 4.12

###

ASSAY SYSTEM: porcine pancreatic PLA2 (Sus scrofa)
Construct: purchased Sigma
EXPERIMENT NOTES: PLA2 assay: in vitro porcine pancreatic phospholipase A2, preincubation of drug+enzyme, substrate 2 nM
Type: biochemical
CONDITION INFO: dose 10 μ/ml; preincubation; subs. con. 2; read-out: % Inh. Avg.
Decision: inhibition at 10 µg/mL compared against 60%; not below it gives TRUE, below it gives FALSE.

INPUT: Check this compound for inhibition at 10 µg/mL at or above 60%: CCCCCCCCCCCCCCCCOP(=O)(OC)OCCOP(=O)(O)OCCBr (centres unmarked)
OUTPUT: FALSE

INPUT: Check this compound for inhibition at 10 µg/mL at or above 60%: C=C(CCCCCCCCCCCCCCCC)CC(COCCCCCCCCCCCCCCCC)COP(=O)([O-])OCC[N+](C)(C)C (centres unmarked)
OUTPUT: TRUE

INPUT: Check this compound for inhibition at 10 µg/mL at or above 60%: CCCCCCCCCCCCCCCCOCC(COP(=O)([O-])OCC[N+](C)(C)C)CS(=O)(=O)CCCCCCCCCCCCCCCC (centres unmarked)
OUTPUT: FALSE

INPUT: Check this compound for inhibition at 10 µg/mL at or above 60%: CCCCCCCCCCCCCCCCOCC(CC=O)COP(=O)([O-])OCC[N+](C)(C)C (centres unmarked)
OUTPUT: FALSE

INPUT: Check this compound for inhibition at 10 µg/mL at or above 60%: CCCCCCCCCCCCCCCCOCC(COP(=O)([O-])OCC[N+](C)(C)C)OP(=O)(O)OCCCCCCCCCCCCCCCC (single isomer, unassigned; more polar)
OUTPUT: FALSE

INPUT: Check this compound for inhibition at 10 µg/mL at or above 60%: CCCCCCCCCCCCCCCCOCC(COP(=O)([O-])OCC[N+](C)(C)C)C[S+]([O-])CCCCCCCCCCCCCCCC (centres unmarked)
OUTPUT: TRUE
